The reported numbers originate from the supplement of paper PMC10065799.

phosphorylation enrichment listing for selected sequences.
biological target: FGFR1 (UniProt P11362); test: phosphorylation enrichment, bacterial display (enrichment ratio); higher = better substrate or ligand; peptides without Tyr show the background
Sequence (P11362 whole entry, looked up): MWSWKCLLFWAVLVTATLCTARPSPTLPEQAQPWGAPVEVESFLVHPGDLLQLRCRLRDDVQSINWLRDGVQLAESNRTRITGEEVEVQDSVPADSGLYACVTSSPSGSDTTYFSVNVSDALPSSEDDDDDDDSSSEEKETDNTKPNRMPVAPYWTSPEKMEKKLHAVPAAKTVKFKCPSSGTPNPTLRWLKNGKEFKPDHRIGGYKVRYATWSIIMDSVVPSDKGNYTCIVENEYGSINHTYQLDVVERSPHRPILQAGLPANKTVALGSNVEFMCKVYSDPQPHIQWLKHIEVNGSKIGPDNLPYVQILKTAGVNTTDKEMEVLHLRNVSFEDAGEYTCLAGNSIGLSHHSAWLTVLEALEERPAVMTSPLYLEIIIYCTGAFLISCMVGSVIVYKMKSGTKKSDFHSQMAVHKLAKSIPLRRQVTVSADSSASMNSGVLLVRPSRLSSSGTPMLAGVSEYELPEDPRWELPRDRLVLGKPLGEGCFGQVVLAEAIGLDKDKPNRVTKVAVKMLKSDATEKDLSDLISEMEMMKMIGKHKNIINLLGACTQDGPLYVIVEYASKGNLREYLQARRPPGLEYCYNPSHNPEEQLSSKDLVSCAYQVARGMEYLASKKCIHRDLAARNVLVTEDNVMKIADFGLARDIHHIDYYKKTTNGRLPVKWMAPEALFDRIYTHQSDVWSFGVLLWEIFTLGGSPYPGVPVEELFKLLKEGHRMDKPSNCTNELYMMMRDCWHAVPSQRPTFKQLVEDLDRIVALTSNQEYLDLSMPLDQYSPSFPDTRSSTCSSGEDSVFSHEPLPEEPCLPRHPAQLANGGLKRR
metric_name: phosphorylation enrichment

seq | measured_on | recorded_result
HPYNSYTYPRL [PAK5_Y316_S312P] | FGFR1 (UniProt P11362) | 0.998
YVPSFYHAFSG [ACTN4_Y265_S262P] | FGFR1 (UniProt P11362) | 1.32
ELAINYQEQAS [SLC9A9_Y591] | FGFR1 (UniProt P11362) | 0.522
NREGVYTVFAP [TGFBI_Y537] | FGFR1 (UniProt P11362) | 0.885
TDGIAYEFRVT | FGFR1 (UniProt P11362) | 0.528
MYVKSYTIHYS [F5_Y2153] | FGFR1 (UniProt P11362) | 0.542
CEETFYTMKVN [MASP2_Y401] | FGFR1 (UniProt P11362) | 0.546
TVDASYCGGRG [ANTXR2_Y380_Y381C] | FGFR1 (UniProt P11362) | 0.496
KNAEKYAEEDW [HSPA9_Y568_R573W] | FGFR1 (UniProt P11362) | 0.763
GMIQAYSSSQR [DES_Y5_S2I] | FGFR1 (UniProt P11362) | 0.384
REHTVYGEPRK [MAGEA4_Y240] | FGFR1 (UniProt P11362) | 0.664
VNNLVYENING [FRS2_Y306_K303N] | FGFR1 (UniProt P11362) | 0.57
LGPSDYFGETA [PRKAR1A_Y323_I327T] | FGFR1 (UniProt P11362) | 0.585
GDPVQYNRTTD [MLPH_Y454] | FGFR1 (UniProt P11362) | 0.465
KLLLKYSFHDA [RNF213_Y4141_V4146A] | FGFR1 (UniProt P11362) | 0.484
HMRLRYLAAEE [CEP120_Y884_Q879H] | FGFR1 (UniProt P11362) | 0.412
LTERDYSFVTT [ACTG2_Y199_G198D] | FGFR1 (UniProt P11362) | 7.67
GCKNRYDKGKP [THAP1_Y14_D17G] | FGFR1 (UniProt P11362) | 0.387
VKMLEYRGKDV [CASP5_Y74_L75R] | FGFR1 (UniProt P11362) | 0.489
LEHCQYVTQKV [ALDOB_Y204_E207Q] | FGFR1 (UniProt P11362) | 0.656
KMKGDYFRSLA [YWHAG_Y130_Y133S_YF] | FGFR1 (UniProt P11362) | 0.456
CENNRYGMGTS [PDHA1_Y227] | FGFR1 (UniProt P11362) | 0.548
GTTIHYNFMCN [TP53_Y234_C229G_YF] | FGFR1 (UniProt P11362) | 0.544
AAVPAYDKIQV [STXBP2_Y401_R405Q] | FGFR1 (UniProt P11362) | 0.66
ETKKQYNSFTY [TMED3_Y85_D86N] | FGFR1 (UniProt P11362) | 0.496
RAFRRYLLKQK [SCN2A_Y1919_YF] | FGFR1 (UniProt P11362) | 0.617
QNKEDYDGLKE [GSTO1_Y139_A140D] | FGFR1 (UniProt P11362) | 0.867
RVDRDYVLKST [HTATIP2_Y111_A116T] | FGFR1 (UniProt P11362) | 0.526
LPPGTYPSDFT [UNC5B_Y511_A516T] | FGFR1 (UniProt P11362) | 0.717

----------
SH2 binding enrichment listing for selected sequences.
molecular target: Grb2 SH2 (UniProt P62993); test: SH2 binding enrichment of the phosphorylated peptide, bacterial display (enrichment ratio); higher = better substrate or ligand; peptides without Tyr show the background
Sequence (P62993 whole entry, looked up): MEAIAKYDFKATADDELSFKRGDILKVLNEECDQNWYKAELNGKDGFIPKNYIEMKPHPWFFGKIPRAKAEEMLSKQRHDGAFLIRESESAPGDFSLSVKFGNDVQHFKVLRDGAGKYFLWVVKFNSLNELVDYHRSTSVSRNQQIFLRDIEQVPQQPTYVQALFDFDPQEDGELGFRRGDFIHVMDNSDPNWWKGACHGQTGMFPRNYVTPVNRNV

seq | measured_on | SH2 binding enrichment
QLYGAYLRIHA [BSCL2_Y213] | Grb2 SH2 (UniProt P62993) | 1.27
TEIGQYGNGLK [MORC2_Y100_Q96E] | Grb2 SH2 (UniProt P62993) | 0.662
LSDGPYSSPYE [EPOR_Y485_N487S] | Grb2 SH2 (UniProt P62993) | 0.808
SVMAEYGLFGA [VSX2_Y219_YF] | Grb2 SH2 (UniProt P62993) | 0.86
VRFMADTDETF [F8_Y450_Y450D] | Grb2 SH2 (UniProt P62993) | 0.676
PEAALYGRFTF [FYN_Y440_I445F] | Grb2 SH2 (UniProt P62993) | 0.652
EWKNNCPRLRE [OPA1_Y582_Y582C] | Grb2 SH2 (UniProt P62993) | 0.916

----------
target: c-Src SH2; assay: SH2 binding enrichment of the phosphorylated peptide, bacterial display (enrichment ratio); higher = better substrate or ligand; peptides without Tyr show the background

seq | measured_on | SH2 binding enrichment
VLTSTYRGGGG [HBA1_Y141_K140T] | c-Src SH2 | 0.452
LEGAKYVSHGA [ASS1_Y113_R108L] | c-Src SH2 | 0.446
CTTIQYNYMCN [TP53_Y234_H233Q] | c-Src SH2 | 4.11
FLAATYPTLGQ [NF1_Y2508_V2511L_YF] | c-Src SH2 | 0.572
PFGQWYESHFA [RPS8_Y113_R110G_YF] | c-Src SH2 | 0.919
IDLEKYKLLPE [DHFR_Y157] | c-Src SH2 | 0.486
HQKKPYCHAHN [NRAP_Y53] | c-Src SH2 | 1.29
VQNIVYRTASI [CYP39A1_Y102] | c-Src SH2 | 0.447
PVQDAYQKVVA [HBB_Y131_A129D] | c-Src SH2 | 1.03
WTAHSYRMGST [ARHGEF7_Y785] | c-Src SH2 | 0.538
PFTRNYFVWAV [CYBA_Y87_R90W_YF] | c-Src SH2 | 0.534
CQAHGYFCQLI [STK11_Y156] | c-Src SH2 | 0.984
GDPVQYNRTTD [MLPH_Y454] | c-Src SH2 | 0.459
DRLAVYIDRVR [LMNA_Y45] | c-Src SH2 | 0.682

----------
molecular target: EPHB2 (UniProt P29323); assay: phosphorylation enrichment, bacterial display (enrichment ratio); higher = better substrate or ligand; peptides without Tyr show the background
Sequence (P29323 whole entry, looked up): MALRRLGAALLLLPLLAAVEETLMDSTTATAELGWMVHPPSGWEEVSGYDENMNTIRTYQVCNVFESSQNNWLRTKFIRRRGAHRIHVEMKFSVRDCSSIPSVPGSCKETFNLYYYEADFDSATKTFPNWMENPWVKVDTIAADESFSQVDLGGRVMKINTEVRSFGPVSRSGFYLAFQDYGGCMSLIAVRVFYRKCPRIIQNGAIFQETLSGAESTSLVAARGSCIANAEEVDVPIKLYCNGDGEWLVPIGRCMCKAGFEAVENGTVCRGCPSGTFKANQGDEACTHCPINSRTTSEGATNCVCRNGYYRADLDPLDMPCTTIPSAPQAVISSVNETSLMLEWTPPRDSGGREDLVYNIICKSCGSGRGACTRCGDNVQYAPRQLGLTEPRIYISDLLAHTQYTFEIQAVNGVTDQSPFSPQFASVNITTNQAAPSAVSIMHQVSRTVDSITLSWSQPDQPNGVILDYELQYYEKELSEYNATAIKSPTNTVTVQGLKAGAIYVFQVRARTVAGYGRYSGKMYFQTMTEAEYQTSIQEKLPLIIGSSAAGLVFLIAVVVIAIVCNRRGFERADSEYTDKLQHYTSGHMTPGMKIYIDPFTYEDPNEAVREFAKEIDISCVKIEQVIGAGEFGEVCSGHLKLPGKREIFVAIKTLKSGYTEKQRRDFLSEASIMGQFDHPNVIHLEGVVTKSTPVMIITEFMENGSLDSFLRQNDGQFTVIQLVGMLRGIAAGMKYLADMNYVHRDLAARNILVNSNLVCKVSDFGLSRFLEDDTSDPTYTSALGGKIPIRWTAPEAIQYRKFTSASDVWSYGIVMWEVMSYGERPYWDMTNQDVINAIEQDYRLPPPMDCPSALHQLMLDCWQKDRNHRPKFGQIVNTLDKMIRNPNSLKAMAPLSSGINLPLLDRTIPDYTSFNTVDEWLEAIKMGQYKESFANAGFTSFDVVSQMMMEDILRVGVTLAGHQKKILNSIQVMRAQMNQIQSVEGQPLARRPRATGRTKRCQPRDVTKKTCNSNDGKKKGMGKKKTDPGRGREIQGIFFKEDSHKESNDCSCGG
Rule: phosphorylation enrichment under 0.6 gives criterion not met, otherwise criterion met.

seq | measured_on | class
FQEKSYIKGTS [LCTL_Y331_L326F] | EPHB2 (UniProt P29323) | criterion not met
EEESCYILHSS [PATJ_Y783] | EPHB2 (UniProt P29323) | criterion met
CEETFYTMKVN [MASP2_Y401] | EPHB2 (UniProt P29323) | criterion met
EAEPYYCSLRD [NPHS1_Y1139_R1140C] | EPHB2 (UniProt P29323) | criterion met
GPKSTYISSAA [GOLGA5_Y62] | EPHB2 (UniProt P29323) | criterion not met
YDAHNYHPLPV [OAT_Y55_G51D] | EPHB2 (UniProt P29323) | criterion met
YETDYYRKGGK [INSR_Y1190] | EPHB2 (UniProt P29323) | criterion not met
TVLEHYRRTHC [MYBPC3_Y1119] | EPHB2 (UniProt P29323) | criterion met
HSFNSYTFPRL [PAK5_Y316_YF] | EPHB2 (UniProt P29323) | criterion met
RIVTTYIRERE [DNM2_Y463] | EPHB2 (UniProt P29323) | criterion met
EPSVDCCVVKI [CAD_Y735_Y735C] | EPHB2 (UniProt P29323) | criterion not met
NELTFYCFKKD [CD59_Y87_C89Y_YF] | EPHB2 (UniProt P29323) | criterion not met
YQGGTYSKACT [FGG_Y380_S384C] | EPHB2 (UniProt P29323) | criterion not met

----------
target: Jak2 (UniProt O60674); assay: phosphorylation enrichment, bacterial display (enrichment ratio); higher = better substrate or ligand; peptides without Tyr show the background
Sequence (O60674 whole entry, looked up): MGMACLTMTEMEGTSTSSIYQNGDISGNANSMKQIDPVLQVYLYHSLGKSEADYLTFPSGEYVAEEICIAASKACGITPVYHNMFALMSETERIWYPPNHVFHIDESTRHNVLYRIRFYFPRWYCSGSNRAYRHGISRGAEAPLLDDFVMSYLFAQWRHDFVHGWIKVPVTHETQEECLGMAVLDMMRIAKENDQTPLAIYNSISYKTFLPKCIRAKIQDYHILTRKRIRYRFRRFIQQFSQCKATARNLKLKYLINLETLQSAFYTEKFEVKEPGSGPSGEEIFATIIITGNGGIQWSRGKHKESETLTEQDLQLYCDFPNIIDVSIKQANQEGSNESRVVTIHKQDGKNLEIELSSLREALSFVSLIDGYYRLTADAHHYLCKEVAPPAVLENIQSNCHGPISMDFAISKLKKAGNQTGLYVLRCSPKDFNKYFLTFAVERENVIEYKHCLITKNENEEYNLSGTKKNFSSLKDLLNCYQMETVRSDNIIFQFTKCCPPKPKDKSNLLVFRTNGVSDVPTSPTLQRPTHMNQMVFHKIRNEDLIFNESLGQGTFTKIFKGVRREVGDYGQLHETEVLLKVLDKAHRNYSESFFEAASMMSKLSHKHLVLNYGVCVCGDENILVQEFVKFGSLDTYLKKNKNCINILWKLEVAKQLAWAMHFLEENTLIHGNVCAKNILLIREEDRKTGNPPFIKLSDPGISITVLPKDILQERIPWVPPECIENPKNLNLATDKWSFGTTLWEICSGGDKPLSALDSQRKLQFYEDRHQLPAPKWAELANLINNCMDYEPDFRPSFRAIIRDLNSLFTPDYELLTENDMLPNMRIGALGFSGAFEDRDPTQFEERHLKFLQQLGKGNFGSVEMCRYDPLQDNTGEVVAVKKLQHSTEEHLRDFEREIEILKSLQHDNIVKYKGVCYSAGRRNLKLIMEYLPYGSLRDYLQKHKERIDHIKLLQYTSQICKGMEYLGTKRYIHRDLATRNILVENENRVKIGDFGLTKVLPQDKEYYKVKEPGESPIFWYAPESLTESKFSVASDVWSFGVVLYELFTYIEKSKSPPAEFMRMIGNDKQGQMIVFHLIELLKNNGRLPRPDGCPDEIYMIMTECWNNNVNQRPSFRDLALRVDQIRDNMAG
Rule: phosphorylation enrichment under 0.9 gives False, otherwise True.

seq | class
AIYWRYSKFFD [SH3PXD2B_Y45_R43W] | True
DPEGAYTTRGG [EPHA3_Y779_A777G] | False
TYQYKYPEGSS [TGM4_Y440_E437Q] | False
YGMSTYITRED [FNDC3B_Y180] | True
EIRTQYEAMAS [GFAP_Y242] | False
ILGRFYERGSI [PAX5_Y73_T75R_YF] | False
LFLALYTGLVH [PIGB_Y402] | True
QYKGKYLAKHN [CASK_Y712_D710G] | False
SSWKLYPRMLR [HAO1_Y50_R46S] | False
CTTIHSNFMCN [TP53_Y234_Y234S_YF] | False
GPKSTYISSAA [GOLGA5_Y62] | False
RRAKGYPIFLF [ITGB2_Y125_D128Y_YF] | True
GCVRMYELVHR [GLE1_Y135] | True
SYNNKYGMVAQ [APOB_Y276_K273N] | False
IKSSIYDNRNE [ARAP2_Y380_K384N] | False
AQVDTYCRHNF [HLA-DRB1_Y107_A103Q_YF] | False
QQTFTYDSGIH [JUP_Y22_YF] | True
CRWKRYQCSHD [GDPD5_Y30_R32C] | False
FPPTHYIRRMP [SLC4A11_Y820_V824M_YF] | False
DLRTGYSVPFG [TGM1_Y370_Y365D_YF] | False
SLIDGYFRLTA [JAK2_Y372_YF] | True
LVQAEYWHDPI [PPT1_Y185] | True
QISQDYGVLLE [PRDX3_Y172_R170Q] | True
GESLTYVSTTF [C1orf162_Y120_A121V] | False
SSQTIYQRVEG [TFR2_Y23_V22I] | False
NTGYYYDLYGG [PTPN11_Y63_D61Y] | True
HCFAAYFQQGD [GPI_Y351_R347C] | True
